- assay text: clinical
- settings: human, in vivo, 225 mg, Cmax, arithmetic mean (SD)
test readout: Cmax (nM)
Please state the figure in nM; there is no need to write the unit.

Endpoint output: Cmax of C=CCn1c(=O)c2cnc(Nc3ccc(N4CCN(C)CC4)cc3)nc2n1-c1cccc(C(C)(C)O)n1 . Value?
1490

---

- assay text: plasma pharmacokinetics of probe cocktail substrates and metabolites with and without adavosertib in patients
- settings: human, in vivo, Mean Vz/F, L (SD), + AD (adavosertib 225 mg bid, period 2)
test readout: Vd/F (L)
Please state the figure in L; there is no need to write the unit.

Endpoint output: Vd/F of Cc1ncc2n1-c1ccc(Cl)cc1C(c1ccccc1F)=NC2 [Midazolam, midazolam, reference compound] . Value?
364
